- Test system: MCF7 breast
- assay.explanation: NCI-60 one-dose screen, 48 h
- experimental.parameters: 10 µM
- Description: Growth inhibition of the MCF7 human tumor cell line is measured as a screen for anti-cancer activity. Cells are grown in 96 well plates and exposed to the test compound for 48 hours. Compounds are tested at a single concentration, which is 10^-5 M for most compounds. The reported endpoint is percent growth (GI% or GIPRCNT), where numbers from 0 - 100% represent growth inhibition, and numbers from -100% - 0 represent cell death. For example, a value of 40 represents 60% growth inhibition. […]
This is part of a sample that, as a whole, favours compounds with a hit. Of some 83,000 tested, about 20% had one in any assay. The source made the active and inactive calls. The calls were made as follows: active = growth percent below 10; inactive = the rest.
Permitted responses: 1 for active, -1 for inactive

Consider the following illustrative entries.
- compound: "CCOC(=O)c1cc2c(n1Cc1ccccc1OC)-c1oncc1CCC2"
  target: "MCF7 breast"
  label.value: -1
- compound: "C=C[C@@H]1CCC/C=C/[C@@H]2C[C@H](O)C[C@H]2[C@H](O)/C=C/C(=O)O1"
  target: "MCF7 breast"
  label.value: 1
- compound: "Cc1c(-c2csc(-n3nc(C(F)(F)F)cc3C(F)(F)F)n2)no[n+]1[O-]"
  target: "MCF7 breast"
  label.value: -1
- compound: "C#CCn1cc(C=C2C(=O)N(C)C(=O)N(C)C2=O)c2cc(Cl)ccc21"
  target: "MCF7 breast"
  label.value: -1
- compound: "Cc1cc(OC(=O)c2ccc([N+](=O)[O-])cc2)nc2[nH]c(=O)sc12"
  target: "MCF7 breast"
  label.value: -1

Outcome logged for O=C(c1nc2ccccc2[nH]1)C1C(c2cccc([N+](=O)[O-])c2)C2CC3CCCCC3N2[C@@]12C(=O)Nc1cc(Cl)ccc12 (stereo not given in full) in this assay:
-1

Param item: O=c1oc2ccc(Cl)cc2c(=O)n1-c1ccc(Cl)cc1F
1

Values were extracted from PubChem BioAssay (NCI).
